Data provenance: the supplement of paper PMC5998384

test system: HeLa Kyoto; assay: solubility in G1/S (NP-40 vs SDS abundance) (log2 ratio); higher = more soluble; settings: cell cycle stage: G1/S;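 further: HeLa Kyoto cells arrested at G1/S by double thymidine block, proteins quantified by TMT10plex mass spectrometry in mild NP-40 versus SDS extracts, three biological replicates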
Could you label it rule met if measured solubility in G1/S (log2) is 0.1 or higher, and rule not met otherwise?

INSERT INTO measurements (seq_text, classification) VALUES
  ('MGDKIWLPFPVLLLAALPPVLLPGAAGFTPSLDSDFTFTLPAGQKECFYQPMPLKASLEIEYQVLDGAGLDIDFHLASPEGKTLVFEQRKSDGVHTVETEVGDYMFCFDNTFSTISEKVIFFELILDNMGEQAQEQEDWKKYITGTDILDMKLEDILESINSIKSRLSKSGHIQTLLRAFEARDRNIQESNFDRVNFWSMVNLVVMVVVSAIQVYMLKSLFEDKRKSRT [TMED5]', 'rule met'),
  ('MAASLWMGDLEPYMDENFISRAFATMGETVMSVKIIRNRLTGIPAGYCFVEFADLATAEKCLHKINGKPLPGATPAKRFKLNYATYGKQPDNSPEYSLFVGDLTPDVDDGMLYEFFVKVYPSCRGGKVVLDQTGVSKGYGFVKFTDELEQKRALTECQGAVGLGSKPVRLSVAIPKASRVKPVEYSQMYSYSYNQYYQQYQNYYAQWGYDQNTGSYSYSYPQYGYTQSTMQTYEEVGDDALEDPMPQLDVTEANKEFMEQSEELYDALMDCHWQPLDTVSSEIPAMM [TRNAU1AP]', 'rule not met');

Now consider a different sequence.
Problem: Check this sequence for solubility in G1/S (log2) at or above 0.1: MSANEDQEMELEALRSIYEGDESFRELSPVSFQYRIGENGDPKAFLIEISWTETYPQTPPILSMNAFFNNTISSAVKQSILAKLQEAVEANLGTAMTYTLFEYAKDNKEQFMENHNPINSATSISNIISIETPNTAPSSKKKDKKEQLSKAQKRKLADKTDHKGELPRGWNWVDVVKHLSKTGSKDDE [RWDD4]
Solution: rule met
